Values from PubChem BioAssay (NCI)

System: HCT-15 colon
Assay: NCI-60 one-dose screen, 48 h
Conditions: 10 µM unless noted
The panel holds about 83,000 compounds, 20% with a hit somewhere; the sample as a whole holds those more often. The source made the active and inactive calls. The calls were made as follows: active = growth percent below 10; inactive = the rest.
Outcomes: active, inactive

COc1ccc(/C=N\NC(=O)c2ccc3nc(-c4ccc(Cl)cc4)[nH]c3c2)cc1 : inactive
CN1CCN(Cc2ccc(NC(=O)c3cncc(C#Cc4c(N)ncc5ccccc45)c3)cc2C(F)(F)F)CC1 : active
CSc1nc(N)c2c(n1)NC(c1ccccc1)C1CCc3ccccc3C1=N2 (centres undefined) : inactive
CCC(=C(c1ccc(OCCN(CC)CC)cc1)c1ccc(OCCN(CC)CC)cc1)c1ccc(Cl)cc1 : active
Cc1ccc(C2=Nc3c(N)nc(N)nc3NC(c3cccc(Nc4ccnc5cc(C(F)(F)F)ccc45)c3)C2)cc1 (centres undefined) : inactive
Cn1ccnc1C(=O)/C=C/c1ccc(CC(=O)Nc2cc(F)c(F)c(F)c2)cc1 : active
O=C(/C=C/c1ccc(Cl)cc1)c1ccc(Nc2ccnc3cc(Cl)ccc23)cc1 : inactive
CCc1ccc(Cc2cnc(NC(=O)c3cc(C)oc3C)s2)cc1 : inactive
COc1ccc(-c2nc3cc(C(=O)NC4CCCCC4)ccc3n2C2CCCCC2)cc1 : inactive

###

Tested on: NCI-H460 lung
Assay: NCI-60 one-dose screen, 48 h (100 = growth as untreated, 0 = no growth, -100 = all killed)
Conditions: 10 µM unless noted
This is part of a sample that, as a whole, favours compounds with a hit. Of some 83,000 tested, about 20% had one in any assay.
Listed molecules paired with reported growth
measurement_name: growth (%)

COc1ccc(-c2ccc(-c3ccc(C(=N)N)nc3)s2)cc1 : -85.1
Cc1cc(=O)oc2cc(Oc3nc(-c4ccccc4)cn4c(-c5ccccc5)cnc34)ccc12 : 64
COc1ccc(-c2cc(-c3ccc(Cl)cc3)c(C#N)c(=O)n2CCCCC(=O)NO)cc1 : 99.1
Nc1nc(N)c2c(n1)NC(c1ccc3c(c1)OCO3)CC(c1cccc(Nc3ccncc3)c1)=N2 (stereo not given) : 96.5
CCOC(=O)c1c(N)sc2cc(O)ccc12 : 112

###

System: NCI-H23 lung
Assay: NCI-60 one-dose screen, 48 h
Details: 10 µM unless noted
This is part of a sample that, as a whole, favours compounds with a hit. Of some 83,000 tested, about 20% had one in any assay. The source made the active and inactive calls. How the source made its calls: active means growth percent below 10; inactive means the rest.
Outcomes: active, inactive

CC(C)(C#N)c1cc(C(=O)Nc2cc(Nc3ncccc3-c3ncnc4nc[nH]c34)ccc2F)cc(C(F)(F)F)c1 : inactive
COc1cccc(/C=C2\CCc3ccccc3C2=O)c1 : inactive
c1ccc2cc(Cn3cc[n+](Cc4ccc5ccccc5c4)c3)ccc2c1 : inactive
O=C(Nc1ncc(Cc2ccccc2Cl)s1)c1ccc2c(c1)OCCO2 : inactive
CCOC(=O)C1=C(c2ccccc2)N=C2SC=C(c3cccc([N+](=O)[O-])c3)N2C1c1ccc(O)cc1 (stereo not given) : inactive
CC/C(=C(/c1ccc(Cl)cc1)c1ccc(OCCCN(C)C)cc1)c1ccc(OC)cc1 : inactive
COC(=O)c1cc(-c2cc(OC)c(OC)c(OC)c2)[nH]c1N/N=C/c1c(Cl)cccc1Cl : active
CCn1c2ccccc2c2cc(C(O)c3cccc4ncccc34)ccc21 (stereo not given) : active
Nc1ncc(-c2ccc3ncnc(N4CCc5ccc(Cl)cc54)c3c2)cn1 : inactive
COCCNC(=O)Cc1cc(-c2ccc(Cl)cc2)n(-c2ccccc2)c1C : inactive
CO[C@H]1CC(c2ccc[nH]2)=N[C@]12O[C@@H](C)C[C@@H]1CCCCCCCc3ccc([nH]3)[C@H]12 : inactive
O=C(OCC(O)C(=O)NC12CC3CC(CC(C3)C1)C2)c1cccc(Br)c1 (stereo not given) : inactive
COc1cc2c(c(OC)c1OC)CCC(c1cccc(C(=O)Nc3ccccc3Br)c1)O2 (stereo not given) : inactive
N#CC1=C(N)Oc2c(ccc3cccnc23)C1c1ccccc1 (stereo not given) : inactive
CC/C(=C(/c1ccc(Cl)cc1)c1ccc(OCCN2CCCC2)cc1)c1ccccc1 : inactive
CC(=O)CC(=O)c1ccccc1.[Cu+2] : inactive
CCOC(=O)C1=C(C)N(C)C(=O)N(C)C1c1ccccc1 (stereo not given) : inactive
NCCCCCNc1noc(Cc2c[nH]c3cc(Br)ccc23)n1 : inactive
COc1ccc(C(=O)/C=C/c2ccc(Cl)cc2)cc1S(N)(=O)=O : inactive
C=C(CNCCc1ccc(O)cc1)[C@@H]1CC[C@]2(CO)CC[C@]3(C)[C@H](CC[C@@H]4[C@@]5(C)CCC(N)C(C)(C)[C@@H]5CC[C@]43C)[C@@H]12 (stereo not given in full) : active
